Organism: Rattus norvegicus
Test Method Notes: Open TG-GATES - Regimen: Single
Assay type: toxicity, organism-based, Sprague-Dawley
Design: regimen Single, gender Male, age 6 weeks
Run Parameters: in vivo, po, 0 mg/kg, 24 h, route gavage, dose level Control
Assign TERMINAL_BW to each entry below.

Inquiry: So what does the record say about TERMINAL_BW for `COC(=O)C1=C(C)NC(C)=C(C(=O)OC)C1c1ccccc1[N+](=O)[O-]` ?
Reply text: 213.5 g

Inquiry: What value of TERMINAL_BW has been recorded for this entry: `CCCc1cc(=O)[nH]c(=S)[nH]1`
Reply text: 192.6 g

Inquiry: # get_value(readout='TERMINAL_BW', item= `Brc1ccccc1` )
Reply text: 196.6 g

Inquiry: What does the data say about its TERMINAL_BW? Entry: `CN/C(=N/CCSCc1nc[nH]c1C)NC#N`
Reply text: 224.9 g

Inquiry: Dear colleague, I am looking for the recorded TERMINAL_BW of the following compound: `Cc1nnc2n1-c1ccc(Cl)cc1C(c1ccccc1Cl)=NC2`
Reply text: 207 g

Inquiry: Tell me the measured TERMINAL_BW of `O=C(OC[C@H]1O[C@@H](OC(=O)c2cc(O)c(O)c(OC(=O)c3cc(O)c(O)c(O)c3)c2)[C@H](OC(=O)c2cc(O)c(O)c(OC(=O)c3cc(O)c(O)c(O)c3)c2)[C@@H](OC(=O)c2cc(O)c(O)c(OC(=O)c3cc(O)c(O)c(O)c3)c2)[C@@H]1OC(=O)c1cc(O)c(O)c(OC(=O)c2cc(O)c(O)c(O)c2)c1)c1cc(O)c(O)c(OC(=O)c2cc(O)c(O)c(O)c2)c1` , please.
Reply text: 197.9 g

Inquiry: So what's the measured TERMINAL_BW for this one? `CCOc1ccc(NC(C)=O)cc1`
Reply text: 226.9 g
